# procedureDetails: inhibitors of E-selectin induction by TNFa, primary screen, imaging, HUVEC, immunofluorescence, MLSMR starter and 10KST1 sets (AID 487);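 note: 100% = median nuclei count of all wells on the same plate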
# runConditions: HUVEC TNFalpha-induced E-selectin immunofluorescence imaging, at 2 µM; measured here: cell number, toxicity
Below, each entry is listed alongside its reported nuclei count.
// return numeric value only (unit: %, not printed)

Please review the entries below; each comes with its answer.
O=C(CSc1nnc(-c2ccccc2)c(-c2ccccc2)n1)N1CCOCC1; 134
CCCc1[nH]nc2c1C(c1c(C)nn(-c3ccccc3)c1Cl)C(C#N)=C(N)O2 (stereo not drawn); 148

For record CCOc1cccc(-c2nnc3sc(COc4ccccc4)nn23)c1 the listed nuclei count is 91.9

For record CC1(C)CC(=O)C2=C(C1)N(Cc1ccco1)C(=O)C2(NC(=O)c1cccnc1)C(F)(F)F (stereo not drawn) the listed nuclei count is 136

For record CN1CCN(C(=O)CSc2nc(-c3cccs3)ccc2C#N)CC1 the listed nuclei count is 138

For record COc1cccc(NC(=O)CC2SC(=Nc3ccccc3)NC2=O)c1 (stereo not drawn) the listed nuclei count is 132

For record COCc1cc(C)nc(SCC(=O)Nc2ccc(C)c(C)c2)c1C#N the listed nuclei count is 161

---

# procedureDetails: DUSP6 inhibitors restoring Erk phosphorylation by chemical complementation, primary imaging in DUSP6-transfected HeLa (AID 609)
# runConditions: HeLa MKP-3 transfected, phospho-Erk imaging KS statistic; measured here: nuclear c-Myc green intensity z-score; at 10 µM; cells stimulated with TPA for 15 min
Below, each entry is listed alongside its reported z-score.
Kindly provide the number alone.

Please review the entries below; each comes with its answer.
C=CCNC(=O)C(C#N)c1nc2ccccc2nc1N1CCCCCC1 (stereo not drawn); 1.13
O=C1C2ON(c3ccccc3)C(c3cccnc3)C2C(=O)N1c1ccccc1 (stereo not drawn); 0.609
O/N=C/c1ccc(OCC(O)COc2ccc(/C=N/O)cc2)cc1; -0.218

Shifting focus to the compound that follows.
For record CCSc1nnc(N(CCC(=O)O)CCC(=O)O)s1 the listed z-score is 0.0362

---

# procedureDetails: inhibitors of TNFa-induced NFkB p65 translocation, primary screen, imaging, HUVEC, MLSMR starter and 10KST1 sets (AID 438);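 note: compound added about 3h40 before a 20 min TNFalpha stimulation; signal is the nuclear over cytoplasmic p65 intensity ratio per well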
# runConditions: HUVEC TNFa-induced p65 nuclear translocation; at 2 µM, stronger effect = higher value, 0% TNFa-plus-vehicle, 100% no-TNFa wells
Below, each entry is listed alongside its reported inhibition.
// return numeric value only (unit: %, not printed)

Fc1ccccc1-c1nc(N2CCCCC2)c2ccccc2n1; -8.4
CCCc1cc(=O)oc2c(CN3CCN(C)CC3)c(O)c(Cl)cc12; 1.4
CN1CCC(=C2c3ccccc3CC(=O)c3sccc32)CC1; 5.3

For record Cc1[nH]c2ccc(F)cc2c(=O)c1SC(F)(F)C(F)C(F)(F)F (centres undefined) the listed inhibition is -1.1

For record COc1ccc(Cl)cc1N=Cc1c(O)cc(C)oc1=O the listed inhibition is -4.9

For record N#Cc1c(N)n(CCOC(=O)c2cccc(Br)c2)c2nc3ccccc3nc12 the listed inhibition is 0.6

For record COc1ccc2c(c1)[nH]c1c(=O)n(CC3CCCO3)cnc12 (centres undefined) the listed inhibition is -0.4

For record C=CCOC(=O)C(C#N)c1nc2ccccc2nc1N1CCN(c2ccccc2OCC)CC1 (centres undefined) the listed inhibition is -30.2

For record CCCCN(CCCC)c1nc2ccccc2nc1C(C#N)C(=O)NCCCOC (centres undefined) the listed inhibition is -6.8

For record O=C(O)c1c[nH]c2ccc(S(=O)(=O)N3CCOCC3)cc12 the listed inhibition is -4.4

For record CC(C)Oc1ccc(C(=O)CCN2CCCCC2)cc1 the listed inhibition is 6.5

For record OC(CCN1CCCCC1)(c1ccccc1)c1ccccc1 the listed inhibition is -1.6
